Attribute: IC50
Assay System: human V2 receptor (Homo sapiens)
Construct: expressed in transfected cells; host or cells: CHO K1 (ATCC) expressing firefly luciferase under a CRE-responsive promoter
Sequence (P30518 whole entry): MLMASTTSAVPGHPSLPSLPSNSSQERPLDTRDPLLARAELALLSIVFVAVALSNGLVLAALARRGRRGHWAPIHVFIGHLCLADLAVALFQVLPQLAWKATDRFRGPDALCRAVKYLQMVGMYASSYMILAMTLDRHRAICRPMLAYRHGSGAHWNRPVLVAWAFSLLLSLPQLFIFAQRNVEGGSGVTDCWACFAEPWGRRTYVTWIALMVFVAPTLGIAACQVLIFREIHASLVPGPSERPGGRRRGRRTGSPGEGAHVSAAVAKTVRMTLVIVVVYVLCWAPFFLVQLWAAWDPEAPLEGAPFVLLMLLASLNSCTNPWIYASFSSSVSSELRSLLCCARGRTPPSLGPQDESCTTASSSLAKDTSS
Experimental Details: Cellular in vitro assay for determining vasopressin receptor activity, V2 receptor cell line (CHO, CRE-luciferase)
Assay type: cell-based
Applied Conditions: CHO cell line transfected with human V2 receptor; [Arg8]-vasopressin at EC50 concentration, 3 hours; read-out: IC50 hV2
Experimental: B-1. Cellular In Vitro Assay for Determining Vasopressin Receptor Activity The identification of agonists and antagonists of the V1a and V2 vasopressin receptors from humans, rats and dogs as well as the quantification of the activity of the compounds of the invention is carried out using recombinant cell lines. […] The bioluminescence of the cell lines is detected using a suitable luminometer [Milligan G, Marshall F, Rees S, Trends in Pharmacological Sciences 17, 235-237 (1996)]. […]
Readout: IC50 (nM)

compound="N#Cc1cccc(C(=O)Nc2ncccc2-n2cnc(Cn3nc(-c4ccc(Cl)cc4)n(C[C@H](O)C(F)(F)F)c3=O)n2)c1 [Example 153]" assay_system="human V2 receptor (Homo sapiens)" experimental_result=17300
compound="O=C(CN1CCCCC1)Nc1ncccc1-n1cnc(Cn2nc(-c3ccc(Cl)cc3)n(C[C@H](O)C(F)(F)F)c2=O)n1 [Example 103]" assay_system="human V2 receptor (Homo sapiens)" experimental_result=2400
compound="O=C(Nc1ncccc1-n1cnc(Cn2nc(-c3ccc(Cl)cc3)n(C[C@H](O)C(F)(F)F)c2=O)n1)c1ccncn1 [Example 143]" assay_system="human V2 receptor (Homo sapiens)" experimental_result=1120
compound="CC(C)CNC(=O)c1ccccc1-n1cnc(Cn2nc(-c3ccc(Cl)cc3)n(C[C@H](O)C(F)(F)F)c2=O)n1 [Example 341]" assay_system="human V2 receptor (Homo sapiens)" experimental_result=205
compound="O=c1n(Cc2ncn(-c3cnccc3NCC3CS(=O)(=O)C3)n2)nc(-c2ccc(Cl)cc2)n1C[C@H](O)C(F)(F)F [Example 18]" assay_system="human V2 receptor (Homo sapiens)" experimental_result=1950
compound="CC1(C)CCN(C(=O)c2ccccc2-n2cnc(Cn3nc(-c4ccc(Cl)cc4)n(C[C@H](O)C(F)(F)F)c3=O)n2)CC1 [Example 277]" assay_system="human V2 receptor (Homo sapiens)" experimental_result=1800
compound="N[C@@H]1CCCC[C@@H]1NC(=O)c1ccccc1-n1cnc(Cn2nc(-c3ccc(Cl)cc3)n(C[C@H](O)C(F)(F)F)c2=O)n1 [Example 234]" assay_system="human V2 receptor (Homo sapiens)" experimental_result=2900
compound="O=C(Nc1ccc(F)cc1)c1ccccc1-n1cnc(Cn2nc(-c3ccc(Cl)cc3)n(C[C@H](O)C(F)(F)F)c2=O)n1 [Example 310]" assay_system="human V2 receptor (Homo sapiens)" experimental_result=215
compound="O=C(Nc1ncccc1-n1cnc(Cn2nc(-c3ccc(Cl)cc3)n(C[C@H](O)C(F)(F)F)c2=O)n1)[C@@H]1C[C@@H]1C(F)(F)F (racemic) [Example 79]" assay_system="human V2 receptor (Homo sapiens)" experimental_result=10500
compound="Cc1ccc(NC(=O)c2ccccc2-n2cnc(Cn3nc(-c4ccc(Cl)cc4)n(C[C@H](O)C(F)(F)F)c3=O)n2)cn1 [Example 249]" assay_system="human V2 receptor (Homo sapiens)" experimental_result=136
compound="O=C(NC1CC1(F)F)c1cccc(Cl)c1-n1cnc(Cn2nc(-c3ccc(Cl)cc3)n(C[C@@H](O)C(F)(F)F)c2=O)n1 (mixture of isomers) [Example 395]" assay_system="human V2 receptor (Homo sapiens)" experimental_result=5150
compound="O=c1n(Cc2ncn(-c3cnccc3NCCC(F)(F)F)n2)nc(-c2ccc(Cl)cc2)n1C[C@H](O)C(F)(F)F [Example 11]" assay_system="human V2 receptor (Homo sapiens)" experimental_result=410
compound="O=C(Nc1cccnc1-n1cnc(Cn2nc(-c3ccc(Cl)cc3)n(C[C@H](O)C(F)(F)F)c2=O)n1)C1(C(F)(F)F)CC1 [Example 47]" assay_system="human V2 receptor (Homo sapiens)" experimental_result=283
compound="O=C(NCC1CCCCC1)c1ccccc1-n1cnc(Cn2nc(-c3ccc(Cl)cc3)n(C[C@H](O)C(F)(F)F)c2=O)n1 [Example 318]" assay_system="human V2 receptor (Homo sapiens)" experimental_result=920
compound="O=c1n(Cc2ncn(-c3cccnc3N3CCOCC3)n2)nc(-c2ccc(Cl)cc2)n1C[C@H](O)C(F)(F)F [Example 64]" assay_system="human V2 receptor (Homo sapiens)" experimental_result=535
compound="O=C(Nc1cc(F)ccc1F)c1ccccc1-n1cnc(Cn2nc(-c3ccc(Cl)cc3)n(C[C@H](O)C(F)(F)F)c2=O)n1 [Example 304]" assay_system="human V2 receptor (Homo sapiens)" experimental_result=65.5
compound="Cc1cnn(CC(=O)Nc2ncccc2-n2cnc(Cn3nc(-c4ccc(Cl)cc4)n(C[C@H](O)C(F)(F)F)c3=O)n2)c1 [Example 92]" assay_system="human V2 receptor (Homo sapiens)" experimental_result=1750

* * *

Assay System: human V1a receptor (Homo sapiens)
Experimental Details: Cellular in vitro assay for determining vasopressin receptor activity, V1a receptor cell line (CHO, aequorin luminescence)
Applied Conditions: CHO cell line transfected with human V1a receptor; [Arg]-vasopressin at EC50 concentration; read-out: IC50 hV1a
hey, just use Satisfied if measured IC50 is less than 200 nM, otherwise Not satisfied

compound=NC(=O)[C@H]1CCCN1c1ccncc1-n1cnc(Cn2nc(-c3ccc(Cl)cc3)n(C[C@H](O)C(F)(F)F)c2=O)n1 class_name="Not satisfied"
compound="COCC1CCCN1C(=O)c1cccnc1-n1nc(Cn2nc(-c3ccc(Cl)cc3)n(C[C@H](O)C(F)(F)F)c2=O)nc1C(=O)N1CCNC(=O)C1 (mixture of isomers)" class_name="Not satisfied"
compound=CCCC(=O)Nc1ncccc1-n1cnc(Cn2nc(-c3ccc(Cl)cc3)n(C[C@H](O)C(F)(F)F)c2=O)n1 class_name=Satisfied
compound="CC1C=CC(C)N1C(=O)c1ccccc1-n1cnc(Cn2nc(-c3ccc(Cl)cc3)n(C[C@H](O)C(F)(F)F)c2=O)n1 (stereo partly drawn)" class_name=Satisfied
compound=Cc1ccnc(NC(=O)c2ccccc2-n2cnc(Cn3nc(-c4ccc(Cl)cc4)n(C[C@H](O)C(F)(F)F)c3=O)n2)c1 class_name=Satisfied
compound="O=C(c1cccc(Cl)c1-n1cnc(Cn2nc(-c3ccc(Cl)cc3)n(C[C@H](O)C(F)(F)F)c2=O)n1)N1CCC(C(F)(F)F)C1 (mixture of isomers)" class_name=Satisfied
compound=COC[C@@H]1CCCN1C(=O)c1cccnc1-n1cnc(Cn2nc(-c3ccc(Cl)cc3)n(C[C@H](O)C(F)(F)F)c2=O)n1 class_name=Satisfied
compound=Cc1cc(C(=O)Nc2ncccc2-n2cnc(Cn3nc(-c4ccc(Cl)cc4)n(C[C@H](O)C(F)(F)F)c3=O)n2)nn1C class_name="Not satisfied"
compound="O=C1CN(c2nc(Cn3nc(-c4ccc(Cl)cc4)n(C[C@H](O)C(F)(F)F)c3=O)nn2-c2cccnc2C(=O)N[C@H]2C[C@@H]2F)CCN1 (racemic)" class_name="Not satisfied"
compound=Nc1ccc(NC(=O)c2ccccc2-n2cnc(Cn3nc(-c4ccc(Cl)cc4)n(C[C@H](O)C(F)(F)F)c3=O)n2)cc1 class_name=Satisfied
compound=Cc1ccc(F)c(NC(=O)c2ccccc2-n2cnc(Cn3nc(-c4ccc(Cl)cc4)n(C[C@H](O)C(F)(F)F)c3=O)n2)c1 class_name=Satisfied
compound="O=C1CCC(NC(=O)c2ccccc2-n2cnc(Cn3nc(-c4ccc(Cl)cc4)n(CC(O)C(F)(F)F)c3=O)n2)CN1 (single isomer, unassigned) [Example 192]" class_name=Satisfied
compound=CCCNC(=O)c1ccccc1-n1cnc(Cn2nc(-c3ccc(Cl)cc3)n(C[C@H](O)C(F)(F)F)c2=O)n1 class_name=Satisfied
compound=O=C(NCC1CC1)c1ccccc1-n1cnc(Cn2nc(-c3ccc(Cl)cc3)n(C[C@H](O)C(F)(F)F)c2=O)n1 class_name=Satisfied
compound=O=C(NCC1CC1)c1cccc(C(F)(F)F)c1-n1cnc(Cn2nc(-c3ccc(Cl)cc3)n(C[C@H](O)C(F)(F)F)c2=O)n1 class_name=Satisfied

* * *

Assay System: human V1a receptor (Homo sapiens, UniProt P37288)
Construct: expressed in transfected cells; host or cells: CHO K1 (ATCC), also stably transfected with a modified aequorin
Sequence (P37288 whole entry): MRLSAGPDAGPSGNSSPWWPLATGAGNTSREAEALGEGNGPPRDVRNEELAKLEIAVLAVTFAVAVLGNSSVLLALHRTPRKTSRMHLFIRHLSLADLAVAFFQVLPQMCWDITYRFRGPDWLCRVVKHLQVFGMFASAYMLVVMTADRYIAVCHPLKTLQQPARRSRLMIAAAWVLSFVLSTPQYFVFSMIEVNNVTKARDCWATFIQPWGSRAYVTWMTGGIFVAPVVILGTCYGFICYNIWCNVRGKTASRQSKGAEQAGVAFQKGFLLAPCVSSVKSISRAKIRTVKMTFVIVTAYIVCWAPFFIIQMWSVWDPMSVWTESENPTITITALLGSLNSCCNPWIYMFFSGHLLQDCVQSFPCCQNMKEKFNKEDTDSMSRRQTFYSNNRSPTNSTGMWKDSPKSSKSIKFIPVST
Experimental Details: Cellular in vitro assay for determining vasopressin receptor activity, V1a receptor cell line (CHO, aequorin luminescence)
Type: cell-based
Applied Conditions: selectivity ratio IC50 hV2 / IC50 hV1a
Attribute: ratio IC50 hV2/hV1a
Readout: ratio IC50 hV2/hV1a

compound=O=C(NCc1ccc(F)cc1)c1ccccc1-n1cnc(Cn2nc(-c3ccc(Cl)cc3)n(C[C@H](O)C(F)(F)F)c2=O)n1 assay_system="human V1a receptor (Homo sapiens, UniProt P37288)" experimental_result=40.8
compound=CCN(C)C(=O)c1ccccc1-n1cnc(Cn2nc(-c3ccc(Cl)cc3)n(C[C@H](O)C(F)(F)F)c2=O)n1 assay_system="human V1a receptor (Homo sapiens, UniProt P37288)" experimental_result=30.8
compound="O=C1CN(c2nc(Cn3nc(-c4ccc(Cl)cc4)n(C[C@H](O)C(F)(F)F)c3=O)nn2-c2cccnc2C(=O)N[C@H]2C[C@@H]2F)CCN1 (racemic)" assay_system="human V1a receptor (Homo sapiens, UniProt P37288)" experimental_result=7.1
compound=CC(C)N(C(=O)c1ccccc1-n1cnc(Cn2nc(-c3ccc(Cl)cc3)n(C[C@H](O)C(F)(F)F)c2=O)n1)C(C)C assay_system="human V1a receptor (Homo sapiens, UniProt P37288)" experimental_result=117.9
compound="CC1CC1C(=O)Nc1ncccc1-n1cnc(Cn2nc(-c3ccc(Cl)cc3)n(C[C@H](O)C(F)(F)F)c2=O)n1 (some centres unmarked)" assay_system="human V1a receptor (Homo sapiens, UniProt P37288)" experimental_result=12.6
compound=O=C(NC1(C(F)(F)F)CC1)c1cccc(Cl)c1-n1cnc(Cn2nc(-c3ccc(Cl)cc3)n(C[C@@H](O)C(F)(F)F)c2=O)n1 assay_system="human V1a receptor (Homo sapiens, UniProt P37288)" experimental_result=77.9
compound=CN(C)C1CN(C(=O)c2ccccc2-n2cnc(Cn3nc(-c4ccc(Cl)cc4)n(C[C@H](O)C(F)(F)F)c3=O)n2)C1 assay_system="human V1a receptor (Homo sapiens, UniProt P37288)" experimental_result=172.4
compound=CC1(C)CN(c2ccncc2-n2cnc(Cn3nc(-c4ccc(Cl)cc4)n(C[C@H](O)C(F)(F)F)c3=O)n2)CCN1 assay_system="human V1a receptor (Homo sapiens, UniProt P37288)" experimental_result=19.2
compound=COCC(=O)Nc1cccnc1-n1cnc(Cn2nc(-c3ccc(Cl)cc3)n(C[C@H](O)C(F)(F)F)c2=O)n1 assay_system="human V1a receptor (Homo sapiens, UniProt P37288)" experimental_result=13.7
compound=O=C1CN(C(=O)c2nc(Cn3nc(-c4ccc(Cl)cc4)n(C[C@H](O)C(F)(F)F)c3=O)nn2-c2ncccc2C(=O)NCCC(F)(F)F)CCN1 assay_system="human V1a receptor (Homo sapiens, UniProt P37288)" experimental_result=0.3
compound=CCN(OC)C(=O)c1ccccc1-n1cnc(Cn2nc(-c3ccc(Cl)cc3)n(C[C@H](O)C(F)(F)F)c2=O)n1 assay_system="human V1a receptor (Homo sapiens, UniProt P37288)" experimental_result=310.3
compound=N#Cc1cccc(C(=O)Nc2ncccc2-n2cnc(Cn3nc(-c4ccc(Cl)cc4)n(C[C@H](O)C(F)(F)F)c3=O)n2)c1 assay_system="human V1a receptor (Homo sapiens, UniProt P37288)" experimental_result=42.2
compound=NC(=O)[C@H]1CC(F)(F)CN1C(=O)c1cccc(Cl)c1-n1cnc(Cn2nc(-c3ccc(Cl)cc3)n(C[C@H](O)C(F)(F)F)c2=O)n1 assay_system="human V1a receptor (Homo sapiens, UniProt P37288)" experimental_result=65.4
compound="O=C(Nc1cccnc1-n1cnc(Cn2nc(-c3ccc(Cl)cc3)n(C[C@H](O)C(F)(F)F)c2=O)n1)C1CC1(F)F (single isomer, unassigned) [Example 43]" assay_system="human V1a receptor (Homo sapiens, UniProt P37288)" experimental_result=36.5
compound="CC1CN(C(=O)c2ccccc2-n2cnc(Cn3nc(-c4ccc(Cl)cc4)n(C[C@H](O)C(F)(F)F)c3=O)n2)CCN1C (some centres unmarked)" assay_system="human V1a receptor (Homo sapiens, UniProt P37288)" experimental_result=119.4
compound="O=C(Nc1ncccc1-n1cnc(Cn2nc(-c3ccc(Cl)cc3)n(C[C@H](O)C(F)(F)F)c2=O)n1)C1CC1(F)F (mixture of isomers)" assay_system="human V1a receptor (Homo sapiens, UniProt P37288)" experimental_result=197.0
compound=COC[C@H]1CCCN1C(=O)c1cccnc1-n1cnc(Cn2nc(-c3ccc(Cl)cc3)n(C[C@H](O)C(F)(F)F)c2=O)n1 assay_system="human V1a receptor (Homo sapiens, UniProt P37288)" experimental_result=17.4
compound=O=C(NCc1ccc(F)c(F)c1)c1ccccc1-n1cnc(Cn2nc(-c3ccc(Cl)cc3)n(C[C@H](O)C(F)(F)F)c2=O)n1 assay_system="human V1a receptor (Homo sapiens, UniProt P37288)" experimental_result=32.7
compound=O=C(Nc1ccc(F)cc1F)c1ccccc1-n1cnc(Cn2nc(-c3ccc(Cl)cc3)n(C[C@H](O)C(F)(F)F)c2=O)n1 assay_system="human V1a receptor (Homo sapiens, UniProt P37288)" experimental_result=234.9
compound=CCN(CC)C(=O)c1ccccc1-n1cnc(Cn2nc(-c3ccc(Cl)cc3)n(C[C@H](O)C(F)(F)F)c2=O)n1 assay_system="human V1a receptor (Homo sapiens, UniProt P37288)" experimental_result=237.2

Attribution: patent US11173151B2
